# Test system: HARA
# ASSAY SUMMARY: relative viability (nuclei count vs DMSO), 5 days (fraction); higher = more cells survive
# SETTINGS: first compound 4 µM
A collection of molecules and their measured relative viability
No unit in the answer, please; the number alone is enough.

Some molecules with recorded relative viability:
C[C@@H]1CN(CC(=O)Nc2ccc3c(c2)Cc2cccc(-c4cc(=O)cc(N5CCOCC5)o4)c2S3)C[C@H](C)O1 + Nc1nc2[nH]cc(CCc3ccc(C(=O)N[C@@H](CCC(=O)O)C(=O)O)cc3)c2c(=O)[nH]1 [Pemetrexed] (partner 0.2 µM)    0.214
Clc1ccc(Nc2nnc(Cc3ccncc3)c3ccccc23)cc1 [Vatalanib] + Cc1nc(Nc2ncc(C(=O)Nc3c(C)cccc3Cl)s2)cc(N2CCN(CCO)CC2)n1 [Dasatinib] (partner 0.075 µM)    0.248
COc1cc(N2CCC(C(N)=O)CC2)ccc1Nc1nc(N)c(Cl)c(Nc2ccccc2S(=O)(=O)C(C)C)n1 [HG-5-88-01] + COc1cccc2cc(-c3nc([C@H]4CC[C@H](C(=O)O)CC4)n4ncnc(N)c34)[nH]c12 [OSI-027] (partner 0.5 µM)    0.144

Given Clc1ccc(Nc2nnc(Cc3ccncc3)c3ccccc23)cc1 [Vatalanib] + N=C(N)NC(=N)NCCc1ccccc1 [Phenformin] (partner 250 µM) , respond with its relative viability.
0.354

Given C[C@@H]1CN(CC(=O)Nc2ccc3c(c2)Cc2cccc(-c4cc(=O)cc(N5CCOCC5)o4)c2S3)C[C@H](C)O1 + O=C(CCCCCCC(=O)Nc1ccccc1)NO [Vorinostat] (partner 1 µM) , respond with its relative viability.
0.436

Given Clc1ccc(Nc2nnc(Cc3ccncc3)c3ccccc23)cc1 [Vatalanib] + O=C(c1cc(Cc2n[nH]c(=O)c3ccccc23)ccc1F)N1CCN(C(=O)C2CC2)CC1 [Olaparib] (partner 8 µM) , respond with its relative viability.
0.823

Given C[C@@H]1CN(CC(=O)Nc2ccc3c(c2)Cc2cccc(-c4cc(=O)cc(N5CCOCC5)o4)c2S3)C[C@H](C)O1 + Nc1ncn([C@H]2C[C@H](O)[C@@H](CO)O2)c(=O)n1 [Decitabine] (partner 2 µM) , respond with its relative viability.
0.717

Given Clc1ccc(Nc2nnc(Cc3ccncc3)c3ccccc23)cc1 [Vatalanib] + COc1cccc2cc(-c3nc([C@H]4CC[C@H](C(=O)O)CC4)n4ncnc(N)c34)[nH]c12 [OSI-027] (partner 0.5 µM) , respond with its relative viability.
0.422

Given COc1cc(N2CCC(C(N)=O)CC2)ccc1Nc1nc(N)c(Cl)c(Nc2ccccc2S(=O)(=O)C(C)C)n1 [HG-5-88-01] + Cc1nc(NC(=O)N2CCC[C@H]2C(N)=O)sc1-c1ccnc(C(C)(C)C(F)(F)F)c1 [Alpelisib] (partner 2 µM) , respond with its relative viability.
0.799
